tested on: johnsongrass (Sorghum halepense, SORHA); test: Pre-emerge test, greenhouse herbicide activity screening; assay type: in vivo; details: pre-emerge, 63 g ai/ha, 14 days after application, rating scale 0-100
experimental readout: phytotoxicity rating SORHA

>  <compound>
CCOC(=O)N(C)C(=O)NNc1c(OC)c(Cl)cc(F)c1-n1c(=O)cc(C(F)(F)F)n(C)c1=O [15-9]

>  <assay result>
100

$$$$
>  <compound>
COc1c(Cl)cc(F)c(-n2c(=O)cc(C(F)(F)F)n(C)c2=O)c1CC(C)(Cl)C(=O)OCC1CCCO1 (stereo not drawn) [14-49]

>  <assay result>
20

$$$$
>  <compound>
COc1c(Cl)cc(F)c(-n2c(=O)cc(C(F)(F)F)n(C)c2=O)c1NN=C1CCc2ccccc2C1 [15-18]

>  <assay result>
75

$$$$
